Listed here: items and their measured IC50, rat NGF-dependent survival of mouse E13.5 trigeminal neurons (1.5 pM NGF).
TARGET_ENTITY: rat nerve growth factor (rat, UniProt P25427 122-241)
Sequence (P25427 122-241 limits assumed): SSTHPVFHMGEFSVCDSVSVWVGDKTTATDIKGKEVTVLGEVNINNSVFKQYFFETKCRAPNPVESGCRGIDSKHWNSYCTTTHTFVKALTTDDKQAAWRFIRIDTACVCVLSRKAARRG
ASSAY_PROTOCOL: cell-based or functional assay

### Prompt // Input: clone 3C (Fab) (Fab, V domains shown, same L1, L2, H1, H2 mutations as 3E; See note of m8; also called Fab 3C) VH: QVQLQESGPGLVKPSETLSLTCTVSGFSLIGYDLNWIRQPPGKGLEWIGIIWGDGTTDYNSAVKSRVTISKDTSKNQFSLKLSSVTAADTAVYYCARGGYWYATSYYFDYWGQGTLVTVS VL: DIQMTQSPSSLSASVGDRVTITCRASQSISNNLNWYQQKPGKAPKLLIYYTSRFHSGVPSRFSGSGSGTDFTFTISSLQPEDIATYYCQQERTLPYTFGQGTKLEIKR . Output its IC50, rat NGF-dependent survival of mouse E13.5 trigeminal neurons (1.5 pM NGF) only.
### Response 6 pM

### Prompt Please report IC50, rat NGF-dependent survival of mouse E13.5 trigeminal neurons (1.5 pM NGF) for the following binder: antibody E3 (Fab) (Fab, V domains shown, Fab with human IgG2 CH1 and human kappa constant domain; His tag at the heavy chain C terminus in the E. coli format; also called Fab E3; 3E Fab) VH: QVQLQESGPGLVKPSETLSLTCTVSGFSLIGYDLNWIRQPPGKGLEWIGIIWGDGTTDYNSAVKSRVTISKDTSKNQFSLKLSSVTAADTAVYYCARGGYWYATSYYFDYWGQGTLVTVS VL: DIQMTQSPSSLSASVGDRVTITCRASQSISNNLNWYQQKPGKAPKLLIYYTSRFHSGVPSRFSGSGSGTDFTFTISSLQPEDIATYYCQQEHTLPYTFGQGTKLEIKR
### Response < 1.3 pM

### Prompt Give a short answer stating reported IC50, rat NGF-dependent survival of mouse E13.5 trigeminal neurons (1.5 pM NGF) for 8L2-6D5 (CDR-grafted antibody with framework mutation V71K) (Fab, V domains shown, Fab (human IgG2 CH1 + C-kappa, His tag at heavy chain C terminus); also called 8L2-6D5 Fab; 8L2-6D5 (control)) VH: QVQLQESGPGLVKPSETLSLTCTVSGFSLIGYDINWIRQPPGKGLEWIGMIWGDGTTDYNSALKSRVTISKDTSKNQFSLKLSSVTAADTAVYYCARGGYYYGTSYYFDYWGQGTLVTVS VL: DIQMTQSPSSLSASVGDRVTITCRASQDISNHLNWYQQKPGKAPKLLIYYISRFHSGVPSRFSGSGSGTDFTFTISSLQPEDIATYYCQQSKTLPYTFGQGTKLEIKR .
### Response 169 pM

### Prompt Specify measured IC50, rat NGF-dependent survival of mouse E13.5 trigeminal neurons (1.5 pM NGF) for H19-L129 (combined clone, H1 H2 L1 L2 matured) (Fab, V domains shown, See note of m8; also called H19-L129 Fab; Fab H19-L129) VH: QVQLQESGPGLVKPSETLSLTCTVSGFSLIGYDLNWIRQPPGKGLEWIGIIWGDGTTDYNSAVKSRVTISKDTSKNQFSLKLSSVTAADTAVYYCARGGYYYGTSYYFDYWGQGTLVTVS VL: DIQMTQSPSSLSASVGDRVTITCRASQSISNNLNWYQQKPGKAPKLLIYYTSRFHSGVPSRFSGSGSGTDFTFTISSLQPEDIATYYCQQSKTLPYTFGQGTKLEIKR .
### Response 6 pM
